Listed here: items and their measured IC50.
target: human JAK2 (a.a. 828-1132) (Homo sapiens); construct: JAK2 (a.a. 828-1132); His tag (N); made in house; host or cells: insect cells (baculovirus); experiment: In vitro JAK kinase assay (HTRF, phosphorylation of a biotinylated peptide), JAK2; format: biochemical; details: Table B1
Sequence (O60674 828-1132): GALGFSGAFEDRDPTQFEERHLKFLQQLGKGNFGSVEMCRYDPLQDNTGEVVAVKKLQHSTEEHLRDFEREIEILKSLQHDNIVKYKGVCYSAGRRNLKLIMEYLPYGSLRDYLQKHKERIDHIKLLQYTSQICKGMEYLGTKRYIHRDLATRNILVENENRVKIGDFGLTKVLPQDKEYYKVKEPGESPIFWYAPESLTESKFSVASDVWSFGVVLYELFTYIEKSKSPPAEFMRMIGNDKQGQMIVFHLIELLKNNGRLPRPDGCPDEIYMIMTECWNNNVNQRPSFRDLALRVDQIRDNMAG
Where a name gives a salt, the structure may show the parent alone.
Express the result in nM but write the number alone.

N#CC1(c2ccccc2)CCN(C(=O)Nc2ccc3cc2CCc2cncc(c2)Nc2ncc(Cl)c(n2)N3)CC1 [Example B322, bis(trifluoroacetate)]    313
Cn1cnc(S(=O)(=O)Nc2ccc3cc2CCc2cccc(c2)Nc2ncc(Cl)c(n2)N3)c1 [Example B144, bis(trifluoroacetate)]    0.2
CC(=O)Nc1ccc(S(=O)(=O)Nc2ccc3cc2CCc2cccc(c2)Nc2ncc(Cl)c(n2)N3)cc1 [Example B161, trifluoroacetate]    1.1

Record O=C(Nc1ccc2c(c1)CCC2)Nc1ccc2cc1CCc1cccc(c1)Nc1ncc(Cl)c(n1)N2 [Example B103, trifluoroacetate] . Reported IC50: 31

Given item Nc1ccc2cc1CCc1cncc(c1)Nc1ncc(Cl)c(n1)N2 [Example B20, tris(trifluoroacetate)] , the value recorded as its IC50 is 1.3

Sample Clc1cnc2nc1Nc1ccc(Nc3nc4cccnc4o3)c(c1)CCc1cccc(c1)N2 [Example B333, tris(trifluoroacetate)] ; IC50 observed: 15
